A collection of compounds and their measured IC50
Target: PH domain leucine-rich repeat-containing protein phosphatase 2 (Homo sapiens, UniProt Q6ZVD8)
Sequence (Q6ZVD8 whole entry, the tested form may be a part): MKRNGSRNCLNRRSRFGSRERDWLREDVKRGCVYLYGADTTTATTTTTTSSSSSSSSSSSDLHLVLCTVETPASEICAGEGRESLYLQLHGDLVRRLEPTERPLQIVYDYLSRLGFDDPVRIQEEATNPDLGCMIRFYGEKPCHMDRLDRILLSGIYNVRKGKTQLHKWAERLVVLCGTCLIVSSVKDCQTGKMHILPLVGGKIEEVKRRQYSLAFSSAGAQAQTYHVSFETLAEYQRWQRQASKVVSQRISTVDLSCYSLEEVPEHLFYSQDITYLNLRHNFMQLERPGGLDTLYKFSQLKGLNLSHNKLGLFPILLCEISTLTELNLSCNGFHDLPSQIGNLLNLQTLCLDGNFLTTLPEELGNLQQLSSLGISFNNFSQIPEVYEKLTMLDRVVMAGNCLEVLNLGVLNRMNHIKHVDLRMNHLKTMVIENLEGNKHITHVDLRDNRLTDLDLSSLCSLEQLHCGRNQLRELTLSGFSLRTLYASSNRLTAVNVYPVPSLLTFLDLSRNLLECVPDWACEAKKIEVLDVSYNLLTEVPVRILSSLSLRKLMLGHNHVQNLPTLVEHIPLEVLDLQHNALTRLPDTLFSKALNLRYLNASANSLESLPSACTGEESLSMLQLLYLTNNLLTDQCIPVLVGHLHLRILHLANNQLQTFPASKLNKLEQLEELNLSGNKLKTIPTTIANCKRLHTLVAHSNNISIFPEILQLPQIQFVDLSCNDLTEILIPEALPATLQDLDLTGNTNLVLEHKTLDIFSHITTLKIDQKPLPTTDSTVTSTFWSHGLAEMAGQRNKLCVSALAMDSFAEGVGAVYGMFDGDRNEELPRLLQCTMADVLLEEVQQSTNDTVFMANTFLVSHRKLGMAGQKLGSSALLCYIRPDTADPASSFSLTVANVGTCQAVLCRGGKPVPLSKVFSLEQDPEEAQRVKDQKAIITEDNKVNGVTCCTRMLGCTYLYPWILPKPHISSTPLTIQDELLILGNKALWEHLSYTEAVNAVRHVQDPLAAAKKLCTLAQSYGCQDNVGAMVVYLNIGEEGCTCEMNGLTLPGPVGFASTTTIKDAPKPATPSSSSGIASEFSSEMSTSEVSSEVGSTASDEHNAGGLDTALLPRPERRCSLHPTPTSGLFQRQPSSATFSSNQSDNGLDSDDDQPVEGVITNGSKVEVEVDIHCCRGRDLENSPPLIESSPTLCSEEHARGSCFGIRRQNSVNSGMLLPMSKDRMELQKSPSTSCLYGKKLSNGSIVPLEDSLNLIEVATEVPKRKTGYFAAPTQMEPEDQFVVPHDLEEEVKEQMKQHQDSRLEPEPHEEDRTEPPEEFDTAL

- O=C(O)C1CCCCC1c1c2ccc(=O)c(O)c-2oc2c(O)c(O)ccc12 (configuration not stated): 10 µM

# IC50 of Cc1cc(/N=N/c2ccc(/N=N/c3ccc(O)c(C(=O)O)c3)cc2)c(N)cc1N = 3.75 µM
